# Octet signal values compiled below
Target: Ab-15
Sequence (heavy, as listed by the source, chain 1 of 2): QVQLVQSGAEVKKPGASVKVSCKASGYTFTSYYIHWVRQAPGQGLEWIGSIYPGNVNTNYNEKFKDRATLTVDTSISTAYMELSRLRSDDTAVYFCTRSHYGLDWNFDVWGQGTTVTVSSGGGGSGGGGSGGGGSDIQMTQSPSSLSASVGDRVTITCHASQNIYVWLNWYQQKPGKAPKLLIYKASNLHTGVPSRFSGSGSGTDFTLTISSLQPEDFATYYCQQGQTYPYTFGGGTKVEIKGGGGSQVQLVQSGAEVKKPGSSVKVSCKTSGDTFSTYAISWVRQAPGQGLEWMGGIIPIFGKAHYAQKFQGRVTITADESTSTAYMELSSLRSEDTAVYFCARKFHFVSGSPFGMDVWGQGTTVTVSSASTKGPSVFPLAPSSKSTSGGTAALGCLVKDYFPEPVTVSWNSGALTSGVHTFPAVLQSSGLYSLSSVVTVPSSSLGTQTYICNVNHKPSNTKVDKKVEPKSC
Sequence (light, as listed by the source, chain 2 of 2): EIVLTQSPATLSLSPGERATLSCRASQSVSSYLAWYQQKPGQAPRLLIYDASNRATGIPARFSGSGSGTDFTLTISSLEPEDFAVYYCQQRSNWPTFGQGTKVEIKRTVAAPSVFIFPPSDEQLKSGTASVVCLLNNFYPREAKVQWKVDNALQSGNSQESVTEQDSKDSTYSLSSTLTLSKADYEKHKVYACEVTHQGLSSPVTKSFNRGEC
Assay: BLI (Octet): sensor loaded with 200 nM biotinylated peptide, 100 nM Ab-15;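 note: binding association and dissociation tracked in real time, fitted to a 1:1 binding model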
Where no end group is shown, it is not given here.
measurement-kind: Octet signal

- VDWCPRDLWVHCFA (cysteine pairing not given here; also: biotinylated, site not given here, CD28 peptide mask) [Peptide-69]: 0.919
- IDWCPRDLWVHCFA (cysteine pairing not given here; also: biotinylated, site not given here, CD28 peptide mask) [Peptide-60]: 0.845
- RDWCPRDLWVHCFA (cysteine pairing not given here; also: biotinylated, site not given here, CD28 peptide mask) [Peptide-53]: 1.22
